The following compounds have recorded pIC50 on CDK1 (Homo sapiens, UniProt P06493).
Sequence (P06493 whole entry, species assumed): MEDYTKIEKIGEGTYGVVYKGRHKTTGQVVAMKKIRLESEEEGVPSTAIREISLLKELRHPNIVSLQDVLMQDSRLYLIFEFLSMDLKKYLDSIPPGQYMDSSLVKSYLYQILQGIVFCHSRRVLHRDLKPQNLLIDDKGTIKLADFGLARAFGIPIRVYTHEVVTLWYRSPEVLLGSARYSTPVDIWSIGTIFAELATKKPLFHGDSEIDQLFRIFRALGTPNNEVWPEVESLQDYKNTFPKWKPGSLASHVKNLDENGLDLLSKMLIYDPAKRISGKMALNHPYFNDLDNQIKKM
Sequence (P14635 whole entry partner, species assumed): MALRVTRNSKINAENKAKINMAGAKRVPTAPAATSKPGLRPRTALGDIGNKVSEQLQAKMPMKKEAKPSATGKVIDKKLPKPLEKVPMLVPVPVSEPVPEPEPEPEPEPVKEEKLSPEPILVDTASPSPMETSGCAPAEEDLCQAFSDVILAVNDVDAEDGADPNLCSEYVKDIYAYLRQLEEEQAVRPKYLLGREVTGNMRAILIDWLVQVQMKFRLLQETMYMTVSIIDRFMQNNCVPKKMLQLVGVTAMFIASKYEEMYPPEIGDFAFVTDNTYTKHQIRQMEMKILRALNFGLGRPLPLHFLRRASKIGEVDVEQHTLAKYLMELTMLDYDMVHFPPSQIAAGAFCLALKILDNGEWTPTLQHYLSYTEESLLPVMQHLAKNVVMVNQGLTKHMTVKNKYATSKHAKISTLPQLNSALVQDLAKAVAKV
pIC50: −log10 of the molar value.

Worked set:
### Prompt Value lookup for pIC50; key = CN(C)CCCCNC(=O)c1ccc(-c2c(F)cnc3[nH]c4cnc(-c5cccnc5)cc4c23)cc1
### Response 6.00 to 7.00

### Prompt Request: CN(C)CCCNC(=O)c1ccc(-c2c(F)cnc3[nH]c4cnc(-c5cccnc5)cc4c23)cc1
### Response 5.30 to 6.00

### Prompt Request: CN1CCC(CNC(=O)c2ccc(-c3c(F)cnc4[nH]c5cnc(-c6cccnc6)cc5c34)cc2)CC1
### Response 5.30 to 6.00

### Prompt Request: CN(C)CCNC(=O)c1ccc(-c2c(F)cnc3[nH]c4cnc(-c5cnn(C)c5)cc4c23)cc1
### Response 6.00 to 7.00

### Prompt Request: CN1CCC(N(C)C(=O)c2ccc(-c3c(F)cnc4[nH]c5cnc(-c6cccnc6)cc5c34)cc2)C1 (centres unmarked)
### Response 5.30 to 6.00

### Prompt Request: CC(=O)NCCNC(=O)c1ccc(-c2c(F)cnc3[nH]c4cnc(-c5cccnc5)cc4c23)cc1
### Response 6.00 to 7.00

### Prompt Request: CN(C)CCCN(C)C(=O)c1ccc(-c2c(F)cnc3[nH]c4cnc(-c5cccnc5)cc4c23)cc1
### Response 6.00 to 7.00

Here is the next item to consider.
### Prompt Value lookup for pIC50; key = CN(C)[C@@H]1CCN(C(=O)c2ccc(-c3c(F)cnc4[nH]c5cnc(-c6cccnc6)cc5c34)cc2)C1
### Response 6.00 to 7.00
